Data origin, for the record: paper PMC10812467

Molecular target: Human peroxidasin (PXDN) (Homo sapiens, UniProt Q92626)
Construct: the four immunoglobulin domains and the peroxidase domain (amino acid residue 246-1314); made in house; host or cells: transient transfection
Sequence (Q92626 246-1314): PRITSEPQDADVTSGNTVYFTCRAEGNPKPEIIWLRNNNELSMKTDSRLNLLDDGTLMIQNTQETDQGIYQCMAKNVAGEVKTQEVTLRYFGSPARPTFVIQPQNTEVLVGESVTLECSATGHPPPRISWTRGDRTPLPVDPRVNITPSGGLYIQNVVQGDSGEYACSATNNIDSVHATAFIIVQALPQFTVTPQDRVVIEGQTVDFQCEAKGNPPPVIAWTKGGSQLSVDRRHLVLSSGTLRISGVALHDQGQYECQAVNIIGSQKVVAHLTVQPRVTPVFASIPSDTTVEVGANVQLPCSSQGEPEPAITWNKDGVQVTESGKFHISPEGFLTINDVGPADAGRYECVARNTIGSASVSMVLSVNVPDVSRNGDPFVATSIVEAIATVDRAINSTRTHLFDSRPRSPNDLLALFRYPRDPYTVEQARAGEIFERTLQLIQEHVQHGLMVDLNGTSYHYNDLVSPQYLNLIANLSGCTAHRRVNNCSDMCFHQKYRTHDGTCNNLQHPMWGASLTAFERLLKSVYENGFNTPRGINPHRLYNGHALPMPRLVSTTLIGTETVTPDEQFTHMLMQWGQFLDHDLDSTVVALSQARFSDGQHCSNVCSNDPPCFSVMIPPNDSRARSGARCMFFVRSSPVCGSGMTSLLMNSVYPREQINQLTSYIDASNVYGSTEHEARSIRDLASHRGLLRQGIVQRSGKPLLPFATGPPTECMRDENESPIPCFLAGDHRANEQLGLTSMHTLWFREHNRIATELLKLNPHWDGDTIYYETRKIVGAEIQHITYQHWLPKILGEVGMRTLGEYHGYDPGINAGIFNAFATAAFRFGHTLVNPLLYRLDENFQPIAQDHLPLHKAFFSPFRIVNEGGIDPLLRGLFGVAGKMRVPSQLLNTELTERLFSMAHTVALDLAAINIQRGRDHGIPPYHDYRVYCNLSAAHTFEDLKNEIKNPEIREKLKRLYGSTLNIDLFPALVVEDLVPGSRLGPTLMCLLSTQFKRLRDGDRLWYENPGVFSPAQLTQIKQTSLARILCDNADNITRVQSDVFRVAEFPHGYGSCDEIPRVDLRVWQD
Experiment: Amplex oxidation activity assay in the presence of bromide
Assay type: biochemical
pIC50: −log10 of the molar value.
assayReadout: pIC50

INSERT INTO assay_data (compound, targetortestsystem, valueobserved) VALUES
  ('Oc1cc(O)cc(O)c1 [Phloroglucinol, 1,3,5-Trihydroxybenzene]', 'Human peroxidasin (PXDN) (Homo sapiens, UniProt Q92626)', 6.02),
  ('NNC(=O)CNc1ccccc1F', 'Human peroxidasin (PXDN) (Homo sapiens, UniProt Q92626)', 6.05);
